- experiment_summary: basal RPMI8226 mitochondrial membrane potential changes, profiling panel, cell-based, JC-1 fluorescence, 24 h, 100 nL compound (AID 1169); further: test concentration not given here
- experimental_conditions: RPMI8226 myeloma, JC-1 mitochondrial potential fluorescence, higher = more signal
Please note: T applies when z-score is -0.4 or greater, and F applies otherwise.

Worked examples follow.
{"molecule": "CC=CC1=C(CO)[C@H](O)[C@H]2O[C@H]2[C@H]1O", "group": "T"}
{"molecule": "COC(=O)CC=C[C@H](C)[C@H](CO)NS(=O)(=O)c1ccc(C)cc1", "group": "F"}
{"molecule": "COc1ccc(OC[C@H]2Cc3c(-c4ccccc4)nc4c(c3CO2)CN(CCOc2ccccc2)CC4)cc1", "group": "T"}
{"molecule": "CCc1cc2c(nc1CC)CCN(CCC(C)=NOC[C@@H](O)COCc1ccco1)C2", "group": "F"}
{"molecule": "COC(=O)c1c(CC[C@@H](CO)NC(=O)N[C@H](Cc2ccccc2)Cn2cc(-c3ccccc3N)nn2)oc(C(C)=O)c1C(=O)OC", "group": "F"}

Given the entry CS(=O)(=O)CCOC(=O)C1=CC(CCCO)=CC(c2cccs2)N(Cc2cccc(OC(F)(F)F)c2)C=C1C(=O)OCCS(C)(=O)=O (stereo not drawn) , answer whether its z-score meets or surpasses -0.4.
F

Decide: is the reported value of z-score for `C=C(/C(=C/C[C@@H](OC(=O)c1ccncc1)c1ccc(OCCO)cc1)c1cnc2ccccc2c1)C(C)C` equal to or greater than -0.4?
F

Value source: PubChem BioAssay
